Target: Cellular tumor antigen p53 (Homo sapiens) (UniProt P04637)
Sequence (P04637 whole entry, looked up): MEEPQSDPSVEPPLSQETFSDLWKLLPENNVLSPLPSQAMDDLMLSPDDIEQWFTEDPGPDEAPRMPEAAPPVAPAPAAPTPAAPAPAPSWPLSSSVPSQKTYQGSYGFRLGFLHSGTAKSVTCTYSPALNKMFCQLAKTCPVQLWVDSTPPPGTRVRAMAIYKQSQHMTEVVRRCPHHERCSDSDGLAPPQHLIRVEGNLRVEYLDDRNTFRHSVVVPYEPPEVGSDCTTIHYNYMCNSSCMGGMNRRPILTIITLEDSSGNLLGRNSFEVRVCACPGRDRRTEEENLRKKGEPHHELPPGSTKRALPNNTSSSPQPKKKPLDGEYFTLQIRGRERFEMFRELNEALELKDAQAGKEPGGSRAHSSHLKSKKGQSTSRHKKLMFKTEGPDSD
Test: TOX21_p53_BLA_p4_ratio: Tox21 HCT-116 p53 Agonism Beta-lactamase Assay, Ratio, Phase 4 (AID 2283601)
Records with an inconclusive call do not appear. The source made the active and inactive calls. How the source made its calls: active means hit-call score of the fitted dose curve at least 0.9, where 1 is the maximum; inconclusive means response in the unintended direction; inactive means score below 0.9.
Labels: active, inactive

- compound: "CCOP(=S)(OCC)Oc1cc(C)nc(C(C)C)n1"
  category: "inactive"
- compound: "Cc1cc(C2CC2)nc(Nc2ccccc2)n1"
  category: "active"
- compound: "CCC(=NOC/C=C/Cl)C1=C(O)CC(C2CCOCC2)CC1=O (stereo not drawn)"
  category: "inactive"

###

Target: human Peripheral-type Benzodiazepine Receptor (PBR), TSPO (gene 706)
Assay: NVS_MP_hPBR: NovaScreen (NVS) Membrane Protein Assay for human Peripheral-type Benzodiazepine Receptor (PBR) (AID 2283331);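 further: hits reduce radioligand binding relative to DMSO baseline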
Inconclusive results are not listed. Calls of active or inactive are those of the source. How the source made its calls: active means hit-call score of the fitted dose curve at least 0.9, where 1 is the maximum; inconclusive means response in the unintended direction; inactive means score below 0.9.
Outcome codes: 1 (yes) = active, 0 (no) = inactive

- molecule: "CCCCSP(=O)(SCCCC)SCCCC"
  category: "1 (yes)"
- molecule: "S=C1NCCN1"
  category: "0 (no)"
- molecule: "CCc1cccc(C)c1N(C(=O)CCl)C(C)COC (stereo unspecified)"
  category: "1 (yes)"
- molecule: "Cc1cc(C2CC2)nc(Nc2ccccc2)n1"
  category: "1 (yes)"
- molecule: "CCCOCC(=Nc1ccc(Cl)cc1C(F)(F)F)n1ccnc1"
  category: "1 (yes)"
- molecule: "CC(COc1ccc(Oc2ccccc2)cc1)Oc1ccccn1 (stereo unspecified)"
  category: "0 (no)"
- molecule: "CC(C)[C@H](C(=O)O[C@H](C#N)c1cccc(Oc2ccccc2)c1)c1ccc(Cl)cc1"
  category: "0 (no)"
- molecule: "CC1=NNC(=O)N(/N=C/c2cccnc2)C1"
  category: "0 (no)"
- molecule: "CCOP(=S)(Oc1cnc(C(C)(C)C)nc1)OC(C)C (stereo unspecified)"
  category: "0 (no)"
- molecule: "CCOP(=S)(OCC)SCCSCC"
  category: "0 (no)"
- molecule: "C=C(C)[C@H]1Cc2c(ccc3c2O[C@@H]2COc4cc(OC)c(OC)cc4[C@@H]2C3=O)O1"
  category: "0 (no)"

###

Read-out: Interleukin-8 (IL8), CXCL8 (gene 3576)
Experiment: BSK_hDFCGF_IL8: BioMAP Diversity Plus: hDFCGF Assay for Interleukin-8 (IL8) Biomarker Activity (AID 2283058)
Conditions: primary human foreskin fibroblasts; actives raise or lower the signal
Active and inactive are the calls of the source. Rule for the calls: active = hit-call score of the fitted dose curve at least 0.9, where 1 is the maximum; inactive = score below 0.9.
Classes used: T = active, F = inactive

- compound: "CC(=NC#N)N(C)Cc1ccc(Cl)nc1"
  category: "F"
- compound: "CC(C)N(C(=O)SCC(Cl)=C(Cl)Cl)C(C)C"
  category: "T"
- compound: "CNC(=O)ON=C(SC)C(=O)N(C)C"
  category: "F"
- compound: "CCNc1nc(Cl)nc(NC(C)(C)C#N)n1"
  category: "F"
- compound: "CCC(=NOC/C=C/Cl)C1=C(O)CC(C2CCOCC2)CC1=O (centres undefined)"
  category: "F"
- compound: "COP(=O)(OC)SCn1c(=O)oc2cc(Cl)cnc21"
  category: "T"
- compound: "CCCCOC(=O)[C@@H](C)Oc1ccc(Oc2ccc(C#N)cc2F)cc1"
  category: "F"
- compound: "FC(F)C(F)(F)OCC(Cn1cncn1)c1ccc(Cl)cc1Cl (centres undefined)"
  category: "F"
- compound: "O=C(O)c1cc(Oc2ccc(C(F)(F)F)cc2Cl)ccc1[N+](=O)[O-]"
  category: "F"

###

Test: ATG_M_61_CIS: Attagene CIS-FACTORIAL HepG2 Assay for M61 Transcription Factor (Internal Marker) (AID 2282937)
Conditions: HepG2 Attagene CIS-FACTORIAL M61 internal marker reporter; actives raise or lower the signal
Active and inactive are the calls of the source. Rule for the calls: active = hit-call score of the fitted dose curve at least 0.9, where 1 is the maximum; inactive = score below 0.9.

- compound: "COP(=O)(OC)C(O)C(Cl)(Cl)Cl (stereo unspecified)"
  outcome: "inactive"
- compound: "O=[N+]([O-])c1cc(C(F)(F)F)c(Cl)c([N+](=O)[O-])c1Nc1ncc(C(F)(F)F)cc1Cl"
  outcome: "inactive"
- compound: "CCOC(=O)CC(SP(=O)(OC)OC)C(=O)OCC (stereo unspecified)"
  outcome: "inactive"
- compound: "CC(COc1ccc(Oc2ccccc2)cc1)Oc1ccccn1 (stereo unspecified)"
  outcome: "inactive"
- compound: "C#CC(C)(C)NC(=O)c1cc(Cl)cc(Cl)c1"
  outcome: "inactive"
- compound: "CCCCSP(=O)(SCCCC)SCCCC"
  outcome: "inactive"
- compound: "COP(=O)(OC)OC(Br)C(Cl)(Cl)Br (stereo unspecified)"
  outcome: "inactive"
- compound: "Nc1c(Cl)cc([N+](=O)[O-])cc1Cl"
  outcome: "inactive"
- compound: "CCCOCC(=Nc1ccc(Cl)cc1C(F)(F)F)n1ccnc1"
  outcome: "inactive"
- compound: "CNC(=O)ON=C(SC)C(=O)N(C)C"
  outcome: "inactive"
- compound: "CC1=NNC(=O)N(/N=C/c2cccnc2)C1"
  outcome: "inactive"
- compound: "CCC(CC)Nc1c([N+](=O)[O-])cc(C)c(C)c1[N+](=O)[O-]"
  outcome: "inactive"
- compound: "CCCCN(CC)c1c([N+](=O)[O-])cc(C(F)(F)F)cc1[N+](=O)[O-]"
  outcome: "inactive"
- compound: "CC1(C(=O)Nc2ccc(O)c(Cl)c2Cl)CCCCC1"
  outcome: "inactive"
- compound: "CCOP(=S)(OCC)SCCSCC"
  outcome: "inactive"
- compound: "C=C(C)[C@H]1Cc2c(ccc3c2O[C@@H]2COc4cc(OC)c(OC)cc4[C@@H]2C3=O)O1"
  outcome: "inactive"

###

Read-out: C-C motif chemokine 2 (Homo sapiens) (UniProt P13500)
Assay: BSK_KF3CT_MCP1: BioMAP Diversity Plus: KF3CT Assay for Monocyte Chemoattractant Protein 1 (MCP1/CCL2) Biomarker Activity (AID 2283073)
Conditions: primary human keratinocytes with fibroblasts; actives raise or lower the signal
Active and inactive are the calls of the source. How the source made its calls: active means hit-call score of the fitted dose curve at least 0.9, where 1 is the maximum; inactive means score below 0.9.
Outcomes: T = active, F = inactive

- compound: "CCC(=NOC/C=C/Cl)C1=C(O)CC(C2CCOCC2)CC1=O (stereo unspecified)"
  category: "F"
- compound: "CCCCSP(=O)(SCCCC)SCCCC"
  category: "F"
- compound: "CCOP(=S)(OCC)Oc1ccc([N+](=O)[O-])cc1"
  category: "F"
- compound: "C=C(C)[C@H]1Cc2c(ccc3c2O[C@@H]2COc4cc(OC)c(OC)cc4[C@@H]2C3=O)O1"
  category: "F"
- compound: "COc1cccc(C(=O)NN(C(=O)c2cc(C)cc(C)c2)C(C)(C)C)c1C"
  category: "F"
- compound: "CCOC(=O)CC(SP(=O)(OC)OC)C(=O)OCC (stereo unspecified)"
  category: "F"
- compound: "CCOP(=S)(Oc1cnc(C(C)(C)C)nc1)OC(C)C (stereo unspecified)"
  category: "F"
- compound: "CC1=NNC(=O)N(/N=C/c2cccnc2)C1"
  category: "F"
- compound: "CCCCN(CC)c1c([N+](=O)[O-])cc(C(F)(F)F)cc1[N+](=O)[O-]"
  category: "F"
- compound: "CC1(C(=O)Nc2ccc(O)c(Cl)c2Cl)CCCCC1"
  category: "F"
- compound: "Nc1c(Cl)cc([N+](=O)[O-])cc1Cl"
  category: "F"
- compound: "CSC1=N[C@@](C)(c2ccccc2)C(=O)N1Nc1ccccc1"
  category: "F"
- compound: "CCc1cccc(C)c1N(C(=O)CCl)C(C)COC (stereo unspecified)"
  category: "F"
- compound: "COP(=O)(NC(C)=O)SC (stereo unspecified)"
  category: "F"
- compound: "CSc1nc(NC(C)C)nc(NC(C)C)n1"
  category: "F"
- compound: "CCc1cnc(C2=NC(C)(C(C)C)C(=O)N2)c(C(=O)O)c1 (stereo unspecified)"
  category: "F"
- compound: "COP(=O)(OC)SCn1c(=O)oc2cc(Cl)cnc21"
  category: "T"
- compound: "CC(=NC#N)N(C)Cc1ccc(Cl)nc1"
  category: "F"
- compound: "CCCSP(=O)(OCC)SCCC"
  category: "F"
- compound: "Nc1nc(N)nc(NC2CC2)n1"
  category: "F"
- compound: "CCCOc1nn(C(=O)NS(=O)(=O)c2ccccc2C(=O)OC)c(=O)n1C"
  category: "F"
- compound: "S=C1NCCN1"
  category: "F"
- compound: "CSc1nnc(C(C)(C)C)c(=O)n1N"
  category: "F"
- compound: "CNC(=O)Oc1cccc2c1OC(C)(C)O2"
  category: "F"
- compound: "CC(C)=CC1C(C(=O)OCN2C(=O)C3=C(CCCC3)C2=O)C1(C)C (stereo unspecified)"
  category: "F"
- compound: "C[Si](Cn1cncn1)(c1ccc(F)cc1)c1ccc(F)cc1"
  category: "F"
- compound: "CCNc1nc(Cl)nc(NC(C)(C)C#N)n1"
  category: "F"
- compound: "CNC(=O)ON=C(C)SC"
  category: "F"
- compound: "CC(C1CC1)C(O)(Cn1cncn1)c1ccc(Cl)cc1 (stereo unspecified)"
  category: "F"
- compound: "Cc1cc(C2CC2)nc(Nc2ccccc2)n1"
  category: "F"
- compound: "CCOP(=O)(OCC)Oc1cc(C)nc(C(C)C)n1"
  category: "T"
- compound: "COP(=O)(OC)OC(Br)C(Cl)(Cl)Br (stereo unspecified)"
  category: "T"
- compound: "O=C(O)c1cc(Oc2ccc(C(F)(F)F)cc2Cl)ccc1[N+](=O)[O-]"
  category: "F"
- compound: "CC[C@H](C)[C@H]1O[C@]2(C=C[C@@H]1C)C[C@@H]1C[C@@H](C/C=C(\\C)[C@@H](O[C@H]3C[C@H](OC)[C@@H](O[C@H]4C[C@H](OC)[C@@H](NC)[C@H](C)O4)[C@H](C)O3)[C@@H](C)/C=C/C=C3\\CO[C@@H]4[C@H](O)C(C)=C[C@@H](C(=O)O1)[C@]34O)O2"
  category: "T"
- compound: "CN(C)[C@@H]1C(=O)C(C(N)=O)=C(O)[C@@]2(O)C(=O)C3=C(O)c4c(O)cccc4[C@@](C)(O)[C@H]3[C@H](O)[C@@H]12"
  category: "F"
- compound: "CNc1cnn(-c2cccc(C(F)(F)F)c2)c(=O)c1Cl"
  category: "F"
- compound: "CCCCOC(=O)[C@@H](C)Oc1ccc(Oc2ccc(C#N)cc2F)cc1"
  category: "F"
- compound: "CCOP(=S)(OCC)Oc1ccc2c(C)c(Cl)c(=O)oc2c1"
  category: "F"
- compound: "COP(=O)(OC)C(O)C(Cl)(Cl)Cl (stereo unspecified)"
  category: "F"
- compound: "N#CSCSC#N"
  category: "T"
- compound: "CN(C)C(=O)Nc1cccc(C(F)(F)F)c1"
  category: "F"
